experiment_description: In vivo kinetics experiment (radioactivity distribution)
Parameters: species or system Wistar male rat
test_context: 60 min after administration; rat i.v.; mean ± SD
We label by threshold. Values of Radioactivity distribution Blood strictly beneath 0.1 % ID/g are criterion met. Values of 0.1 % ID/g and up are criterion not met.

Worked set:
CC(C)n1c(-c2cncc(Cn3ccnc3)c2)nc2ccc([123I])cc21 [[^123I] 606]	criterion not met
FCCn1c(-c2cncc(Cn3ccnc3)c2)nc2ccc([123I])cc21 [[^123I] 604]	criterion met
FCCn1c(-c2cncc(Cn3cncc3[123I])c2)nc2cc(F)c(Cl)cc21 [[^123I] 610]	criterion not met

(Q) Is 0.1 % ID/g strictly greater than the compound's reported Radioactivity distribution Blood? compound: Fc1cc2nc(-c3cncc(Cn4ccnc4)c3)n(Cc3ccc([123I])cc3)c2cc1Cl [[^123I] 605]
(A) criterion met

(Q) Please check: Radioactivity distribution Blood for CCn1c(-c2cncc(Cn3ccnc3)c2)nc2ccc([123I])cc21 [[^123I] 608] , strictly under 0.1 % ID/g or not?
(A) criterion met

(Q) # check: Radioactivity distribution Blood < 0.1 % ID/g for Cn1c(-c2cncc(Cn3ccnc3)c2)nc2ccc([123I])cc21 [[^123I] 607]
(A) criterion met

(Q) Lab note: Radioactivity distribution Blood threshold 0.1 % ID/g. Does this compound come in strictly under it? COC(=O)c1cncn1[C@H](C)c1ccc(I)cc1 [[^123I] IMTO, (R)-[^123I]iodometomidate, reference compound]
(A) criterion not met

(Q) Is the reported Radioactivity distribution Blood for COc1cc([123I])cc2c1nc(-c1cncc(Cn3ccnc3)c1)n2C1CC1 [[^123I] 609] strictly below 0.1 % ID/g?
(A) criterion not met

---

experiment_description: In vivo kinetics experiment (radioactivity distribution)
Set-up: species or system Wistar male rat
test_context: 30 min after administration; rat i.v.; mean ± SD
For each record, write down the corresponding Radioactivity distribution Femur.
Give bare numbers, in % ID/g.

FCCn1c(-c2cncc(Cn3cncc3[123I])c2)nc2cc(F)c(Cl)cc21 [[^123I] 610]	19.34
CCn1c(-c2cncc(Cn3ccnc3)c2)nc2ccc([123I])cc21 [[^123I] 608]	1.17
Fc1cc2nc(-c3cncc(Cn4ccnc4)c3)n(Cc3ccc([123I])cc3)c2cc1Cl [[^123I] 605]	0.44
COc1cc([123I])cc2c1nc(-c1cncc(Cn3ccnc3)c1)n2C1CC1 [[^123I] 609]	0.29
CC(C)n1c(-c2cncc(Cn3ccnc3)c2)nc2ccc([123I])cc21 [[^123I] 606]	0.50

Please state, for each entry, its recorded Radioactivity distribution Femur.
1. Cn1c(-c2cncc(Cn3ccnc3)c2)nc2ccc([123I])cc21 [[^123I] 607]
2. FCCn1c(-c2cncc(Cn3ccnc3)c2)nc2ccc([123I])cc21 [[^123I] 604]

(A)
1: 0.98; 2: 0.83

---

experiment_description: In vivo kinetics experiment (radioactivity distribution)
Set-up: species or system Wistar male rat
test_context: 60 min after administration; rat i.v.; mean ± SD
I'd appreciate it if you could supply Radioactivity distribution Adrenal gland values for the items below.
One number for each entry, in % ID/g.

CC(C)n1c(-c2cncc(Cn3ccnc3)c2)nc2ccc([123I])cc21 [[^123I] 606]	19.67
FCCn1c(-c2cncc(Cn3ccnc3)c2)nc2ccc([123I])cc21 [[^123I] 604]	18.65
Fc1cc2nc(-c3cncc(Cn4ccnc4)c3)n(Cc3ccc([123I])cc3)c2cc1Cl [[^123I] 605]	1.70

Query compound follows.
(Q) Fill in the blank: the reported Radioactivity distribution Adrenal gland of FCCn1c(-c2cncc(Cn3cncc3[123I])c2)nc2cc(F)c(Cl)cc21 [[^123I] 610] is ____.
(A) 19.09
